assay: Selectivity index, ratio of GI50 for human HaCaT cells to GI50 for human MCF7 cells; type: toxicity; conditions: HaCaT cells versus MCF7 cells, read-out: RatioGI50
MEASUREMENT_KIND: selectivity ratio
Respond numerically, and do not add a unit to the figure.

Worked examples follow.
1) COC(=O)c1[nH]c2ccc(F)cc2c1/C=C1\SC(=O)NC1=S ... 1.64
2) COC(=O)c1[nH]c2ccc(F)cc2c1/C=C1\SC(=O)NC1=O ... 1.24
3) COC(=O)c1[nH]c2ccc(F)cc2c1/C=C1\SC(N)=NC1=O ... 0.96
4) COC(=O)c1[nH]c2ccc(F)cc2c1C=O ... 0.67
5) COC(=O)c1[nH]c2ccc(F)cc2c1/C=C1\SC(=S)NC1=O ... 99.4

Continue with the compound presented below.
Ask: Quote selectivity ratio reported for COC(=O)c1[nH]c2ccc(F)cc2c1/C=C1\NC(=S)NC1=O please.
Result: 1.57

###

test: Selectivity index, ratio of GI50 for human HaCaT cells to GI50 for human HeLa cells; format: toxicity; conditions: HaCaT cells versus HeLa cells, read-out: RatioGI50
Mark t only when selectivity ratio stays strictly below 1. Values equal to the cut-off are f.

1. COC(=O)c1[nH]c2ccc(F)cc2c1/C=C1\SC(=O)NC1=S ... f

Ask: Quick check: selectivity ratio of COC(=O)c1[nH]c2ccc(F)cc2c1/C=C1\SC(N)=NC1=O under 1?
Result: t

Ask: Quick check: selectivity ratio of COC(=O)c1[nH]c2ccc(F)cc2c1/C=C1\NC(=S)NC1=O under 1?
Result: f

Ask: Quick check: selectivity ratio of COC(=O)c1[nH]c2ccc(F)cc2c1/C=C1\SC(=S)NC1=O under 1?
Result: f

Ask: Quick check: selectivity ratio of COC(=O)c1[nH]c2ccc(F)cc2c1C=O under 1?
Result: t

Ask: Quick check: selectivity ratio of COC(=O)c1[nH]c2ccc(F)cc2c1/C=C1\SC(=O)NC1=O under 1?
Result: f

###

experiment: Selectivity index, ratio of GI50 for human HaCaT cells to GI50 for human A549 cells; format: toxicity; conditions: HaCaT cells versus A549 cells, read-out: RatioGI50
Mark YES only when selectivity ratio stays strictly below 4. Values equal to the cut-off are NO.

Ask: Quick check: selectivity ratio of COC(=O)c1[nH]c2ccc(F)cc2c1C=O under 4?
Result: YES

Ask: Quick check: selectivity ratio of COC(=O)c1[nH]c2ccc(F)cc2c1/C=C1\SC(=S)NC1=O under 4?
Result: NO

Ask: Quick check: selectivity ratio of COC(=O)c1[nH]c2ccc(F)cc2c1/C=C1\NC(=S)NC1=O under 4?
Result: YES

Ask: Quick check: selectivity ratio of COC(=O)c1[nH]c2ccc(F)cc2c1/C=C1\SC(N)=NC1=O under 4?
Result: YES

Ask: Quick check: selectivity ratio of COC(=O)c1[nH]c2ccc(F)cc2c1/C=C1\SC(=O)NC1=S under 4?
Result: NO

###

experiment: Cytotoxicity against mouse BALB/3T3 cells assessed as cell growth inhibition measured after 24 hrs by coomassie brilliant blue staining based total cellular protein assay; settings: BALB/3T3 cells
MEASUREMENT_KIND: GI50 at 24 h

Ask: Quote GI50 at 24 h reported for COC(=O)c1[nH]c2ccc(F)cc2c1/C=C1\SC(=S)NC1=O please.
Result: > 100 µM

###

test system: HCT-116; assay: Cytotoxicity against human HCT-116 cells assessed as cell growth inhibition measured after 72 hrs by MTT assay; format: functional
MEASUREMENT_KIND: log10 GI50 (log10 of the value in µM)
Each number you see is log10 of GI50, and the unit inside the log is µM.

Worked examples follow.
1. COC(=O)c1[nH]c2ccc(F)cc2c1/C=C1\SC(=O)NC1=S ... 1.65
2. COC(=O)c1[nH]c2ccc(F)cc2c1/C=C1\SC(=O)NC1=O ... 1.83
3. COC(=O)c1[nH]c2ccc(F)cc2c1/C=C1\NC(=S)NC1=O ... 1.72
4. COC(=O)c1[nH]c2ccc(F)cc2c1/C=C1\SC(N)=NC1=O ... 0.98
5. COC(=O)c1[nH]c2ccc(F)cc2c1/C=C1\SC(=S)NC1=O ... -0.10

Ask: For HCT-116, give log10 GI50 of the listed compound: COc1cccc2c1C(=O)c1c(O)c3c(c(O)c1C2=O)C[C@@](O)(C(=O)CO)C[C@@H]3O[C@H]1C[C@H](N)[C@H](O)[C@H](C)O1
Result: -0.22

###

assay: Selectivity index, ratio of GI50 for human HaCaT cells to GI50 for human HCT-116 cells; assay type: toxicity; conditions: HaCaT cells versus HCT-116 cells, read-out: RatioGI50
Response key: label 1 means selectivity ratio >= 2; label 0 means selectivity ratio < 2.

1) COC(=O)c1[nH]c2ccc(F)cc2c1/C=C1\SC(=O)NC1=O ... label 0
2) COC(=O)c1[nH]c2ccc(F)cc2c1/C=C1\NC(=S)NC1=O ... label 0

Ask: Confirm if selectivity ratio reported for the molecule COC(=O)c1[nH]c2ccc(F)cc2c1C=O is 2 or above.
Result: label 0

Ask: Confirm if selectivity ratio reported for the molecule COC(=O)c1[nH]c2ccc(F)cc2c1/C=C1\SC(=O)NC1=S is 2 or above.
Result: label 0

Ask: Confirm if selectivity ratio reported for the molecule COC(=O)c1[nH]c2ccc(F)cc2c1/C=C1\SC(=S)NC1=O is 2 or above.
Result: label 1

Ask: Confirm if selectivity ratio reported for the molecule COC(=O)c1[nH]c2ccc(F)cc2c1/C=C1\SC(N)=NC1=O is 2 or above.
Result: label 1

###

system: THP-1; experiment: Cytotoxicity against human THP-1 cells assessed as cell growth inhibition measured after 72 hrs by MTT assay; type: functional
MEASUREMENT_KIND: GI50
The reply should consist of the numeric value with the unit placed after it.

Worked examples follow.
1. COC(=O)c1[nH]c2ccc(F)cc2c1/C=C1\SC(=S)NC1=O ... 62.4 µM
2. COC(=O)c1[nH]c2ccc(F)cc2c1/C=C1\SC(N)=NC1=O ... 100 µM
3. COC(=O)c1[nH]c2ccc(F)cc2c1/C=C1\SC(=O)NC1=S ... 28.5 µM
4. COC(=O)c1[nH]c2ccc(F)cc2c1/C=C1\SC(=O)NC1=O ... 45 µM
5. COC(=O)c1[nH]c2ccc(F)cc2c1C=O ... 7.7 µM

Ask: Quote GI50 reported for COc1cccc2c1C(=O)c1c(O)c3c(c(O)c1C2=O)C[C@@](O)(C(=O)CO)C[C@@H]3O[C@H]1C[C@H](N)[C@H](O)[C@H](C)O1 please.
Result: 0.6 µM

Ask: Quote GI50 reported for COC(=O)c1[nH]c2ccc(F)cc2c1/C=C1\NC(=S)NC1=O please.
Result: 58.3 µM

###

assay: Selectivity index, ratio of GI50 for mouse BALA/3T3 cells to GI50 for human HepG2 cells measured after 72 hrs by neutral red uptake assay; type: toxicity; details: BALA/3T3 cells versus HepG2 cells, read-out: Selectivity Index
MEASUREMENT_KIND: selectivity ratio at 72 h
Respond numerically, and do not add a unit to the figure.

Ask: Quote selectivity ratio at 72 h reported for COC(=O)c1[nH]c2ccc(F)cc2c1/C=C1\SC(=S)NC1=O please.
Result: 8.9

###

test: Cytotoxicity against human HaCaT cells assessed as cell growth inhibition measured after 72 hrs by MTT assay; type: cell-based
Some molecules, each annotated with its measured GI50 at 72 h.
Reply numerically in µM, unit not repeated.

Ask: Quote GI50 at 72 h reported for COC(=O)c1[nH]c2ccc(F)cc2c1/C=C1\SC(=S)NC1=O please.
Result: 98.3

###

experiment: Selectivity index, ratio of GI50 for mouse BALA/3T3 cells to GI50 for human HepG2 cells measured after 48 hrs by LDH assay; assay type: toxicity; conditions: BALA/3T3 cells versus HepG2 cells, read-out: Selectivity Index
MEASUREMENT_KIND: selectivity ratio at 48 h

Ask: Quote selectivity ratio at 48 h reported for COC(=O)c1[nH]c2ccc(F)cc2c1/C=C1\SC(=S)NC1=O please.
Result: 1500

###

assay: Selectivity index, ratio of GI50 for mouse BALA/3T3 cells to GI50 for human HepG2 cells; format: toxicity; conditions: BALA/3T3 cells versus HepG2 cells, read-out: RatioGI50
Some compounds, each annotated with its measured selectivity ratio.
Respond numerically, and do not add a unit to the figure.

Worked examples follow.
1. COC(=O)c1[nH]c2ccc(F)cc2c1C=O ... 0.67
2. COC(=O)c1[nH]c2ccc(F)cc2c1/C=C1\SC(=O)NC1=S ... 1.41
3. COC(=O)c1[nH]c2ccc(F)cc2c1/C=C1\NC(=S)NC1=O ... 2.95
4. COC(=O)c1[nH]c2ccc(F)cc2c1/C=C1\SC(N)=NC1=O ... 1.31
5. COC(=O)c1[nH]c2ccc(F)cc2c1/C=C1\SC(=O)NC1=O ... 3.36

Continue with the compound presented below.
Ask: Quote selectivity ratio reported for COC(=O)c1[nH]c2ccc(F)cc2c1/C=C1\SC(=S)NC1=O please.
Result: 5.75
